Recorded log10 of IC50 by entry
molecular target: Human Thrombocytes; experiment: Fibrinogen binding to human thrombocytes (fibrinogen binding test); conditions: *: 125I fibrinogen replaced by 3H-(3S,5S)-5-[(amidino-biphenylyl)-oxymethyl]-carboxymethyl-pyrrolidinone ligand; read-out: Fibrinogen binding test IC50 (values marked *)
Where a name gives a salt, the structure may show the parent alone.
Log scale reminder: IC50 in nM, then log10 taken.

| molecule | log10 of IC50 |
| --- | --- |
| COC(=O)CCNC(=O)c1ccc2c(c1)nc(-c1ccc(C(=N)N)cc1)n2CCCC(=O)O | 4.18 |
| COC(=O)CCNC(=O)c1ccc2[nH]c(-c3ccc(C(=N)N)cc3)nc2c1 | 3.40 |

(Q) Given `COC(=O)CCNC(=O)c1ccc2c(c1)nc(-c1ccc(C(=N)N)cc1)n2CCCN1CCSCC1` , state its recorded log10 of IC50.
(A) 3.30

(Q) Repeat for the following molecule: `Cn1c(-c2ccc(C(=N)N)cc2)nc2c(=O)n(CCCCC(=O)O)c(=O)n(C)c21`
(A) 0.88

(Q) Same thing, different molecule: N=C(N)c1ccc(-c2nc3cc(C(=O)NCCC(=O)O)ccc3[nH]2)cc1 [1(2), hydrochloride]
(A) 2.86

(Q) Ok, now `N=C(N)c1ccc(-c2nc3cc(C(=O)NCCC(=O)O)ccc3n2CCC(c2ccccc2)c2ccccc2)cc1`
(A) 0.98

(Q) Now give it for `COc1ccc(CCn2c(-c3ccc(CN)cc3)nc3cc(C(=O)NCCC(=O)O)ccc32)cc1OC` too.
(A) 2.57

(Q) N=C(N)c1ccc(-c2nc3cc(C(=O)NCCC(=O)OC4CCCCC4)ccc3n2CCCCc2ccccc2)cc1 [13(3), dihydrochloride] ?
(A) 3.15

(Q) Record: CNc1cc2c(cc1C(=O)NCCC(=O)OC)nc(-c1ccc(C(=N)N)cc1)n2C [3(123), acetate]
(A) 4.40
